Provenance of the data: patent US20240398828A1

Sequence of the target: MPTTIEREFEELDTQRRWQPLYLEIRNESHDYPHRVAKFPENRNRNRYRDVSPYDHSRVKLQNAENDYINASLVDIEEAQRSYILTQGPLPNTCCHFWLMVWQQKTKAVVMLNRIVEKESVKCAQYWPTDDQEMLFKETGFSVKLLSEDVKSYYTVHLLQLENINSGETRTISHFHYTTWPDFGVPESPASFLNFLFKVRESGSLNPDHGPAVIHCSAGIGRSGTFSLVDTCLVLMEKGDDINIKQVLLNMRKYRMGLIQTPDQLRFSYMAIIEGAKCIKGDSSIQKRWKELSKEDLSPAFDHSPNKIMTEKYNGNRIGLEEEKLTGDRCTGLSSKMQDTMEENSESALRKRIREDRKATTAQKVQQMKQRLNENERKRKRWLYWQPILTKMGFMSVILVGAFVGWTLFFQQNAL
pIC50: −log10 of the molar value.
Quick reference: pIC50 of the listed items.

# count of solved cases: 4
# Compound, pIC50
measured = [
    ("O=C1CN(c2c(O)ccc(-c3cnn(Cc4cccc(C(F)(F)F)c4)c3)c2F)S(=O)(=O)N1", "≥ 6.00"),
    ("COC(=O)n1nc(-c2ccc(O)c(N3CC(=O)NS3(=O)=O)c2F)cc1C1CC1", "≥ 6.00"),
    ("N#CCCn1cc(-c2ccc(O)c(N3CC(=O)NS3(=O)=O)c2F)cn1", "≥ 6.00"),
    ("O=C1CN(c2c(O)ccc(C3=CCC(NS(=O)(=O)C4CC4)CC3)c2F)S(=O)(=O)N1 (stereo not drawn)", "≥ 6.00"),
]

Please give the measured pIC50 for this compound: `O=C1CN(c2c(O)ccc(-c3cnc(C4CC4)[nH]3)c2F)S(=O)(=O)N1`
≥ 6.00

Please give the measured pIC50 for this compound: `O=C1CN(c2c(O)ccc(-c3ccc(NS(=O)(=O)C4CC4)nc3)c2F)S(=O)(=O)N1`
≥ 6.00

Please give the measured pIC50 for this compound: `O=C1CN(c2c(O)ccc(-n3cc(C4CC4)cn3)c2F)S(=O)(=O)N1`
< 6.00

Please give the measured pIC50 for this compound: `O=C1CN(c2c(O)ccc(-c3cc(C(=O)NC4CC4)n[nH]3)c2F)S(=O)(=O)N1`
< 6.00

Please give the measured pIC50 for this compound: `N#Cc1ccc(-n2cnc(-c3ccc(O)c(N4CC(=O)NS4(=O)=O)c3F)c2)cc1F`
≥ 6.00
